Molecular target: Cannabinoid receptor 1 (Rattus norvegicus) (UniProt P20272)
Sequence (P20272 whole entry): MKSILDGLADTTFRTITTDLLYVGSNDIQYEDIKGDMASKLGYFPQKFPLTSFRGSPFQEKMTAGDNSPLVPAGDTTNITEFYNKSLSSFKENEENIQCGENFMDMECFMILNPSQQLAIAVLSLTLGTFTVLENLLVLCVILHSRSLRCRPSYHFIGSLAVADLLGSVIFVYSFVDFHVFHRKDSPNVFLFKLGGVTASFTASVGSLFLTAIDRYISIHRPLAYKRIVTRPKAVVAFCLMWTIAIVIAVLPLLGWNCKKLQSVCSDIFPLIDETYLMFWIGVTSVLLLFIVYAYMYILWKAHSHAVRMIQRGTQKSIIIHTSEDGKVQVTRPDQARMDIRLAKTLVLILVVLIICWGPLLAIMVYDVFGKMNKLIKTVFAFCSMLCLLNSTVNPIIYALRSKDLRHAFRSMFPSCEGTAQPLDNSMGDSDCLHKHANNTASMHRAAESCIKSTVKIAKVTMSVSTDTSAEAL
Assay: Antagonist activity at rat brain CB1 receptor assessed as inhibition of [35S]GTPgammaS binding at 10000 nM
Format: functional
# label = label 1 if Emax < -20% else label 0

{"smi": "Cc1c(C(=O)NCCCCCCCCCCCNCCCCCCCCCCCN)nn(-c2ccc(Cl)cc2Cl)c1-c1ccc(Cl)cc1", "target": "Cannabinoid receptor 1 (Rattus norvegicus) (UniProt P20272)", "category.label": "label 1"}
{"smi": "Cc1c(C(=O)NCCCCCN(C)CCCCCNC(=O)c2nn(-c3ccc(Cl)cc3Cl)c(-c3ccc(Cl)cc3)c2C)nn(-c2ccc(Cl)cc2Cl)c1-c1ccc(Cl)cc1", "target": "Cannabinoid receptor 1 (Rattus norvegicus) (UniProt P20272)", "category.label": "label 0"}
{"smi": "Cc1c(C(=O)NCCCCCN(C)CCCCCN)nn(-c2ccc(Cl)cc2Cl)c1-c1ccc(Cl)cc1", "target": "Cannabinoid receptor 1 (Rattus norvegicus) (UniProt P20272)", "category.label": "label 1"}
{"smi": "Cc1c(C(=O)NCCCCCCCNCCCCCCCNC(=O)c2nn(-c3ccc(Cl)cc3Cl)c(-c3ccc(Cl)cc3)c2C)nn(-c2ccc(Cl)cc2Cl)c1-c1ccc(Cl)cc1", "target": "Cannabinoid receptor 1 (Rattus norvegicus) (UniProt P20272)", "category.label": "label 1"}
{"smi": "Cc1c(C(=O)NCCCCCCCCCCCN(C)CCCCCCCCCCCN)nn(-c2ccc(Cl)cc2Cl)c1-c1ccc(Cl)cc1", "target": "Cannabinoid receptor 1 (Rattus norvegicus) (UniProt P20272)", "category.label": "label 1"}

----------
Listing of entries alongside the reported Emax.
Biological target: Cannabinoid receptor 1 (Rattus norvegicus) (UniProt P20272)
Assay: Antagonist activity at rat brain CB1 receptor assessed as inhibition of [35S]GTPgammaS binding at 10000 nM
Type: functional

{"smi": "Cc1c(C(=O)NCCCCCCCN(C)CCCCCCCNC(=O)c2nn(-c3ccc(Cl)cc3Cl)c(-c3ccc(Cl)cc3)c2C)nn(-c2ccc(Cl)cc2Cl)c1-c1ccc(Cl)cc1", "target": "Cannabinoid receptor 1 (Rattus norvegicus) (UniProt P20272)", "Emax": "-40.8%"}
{"smi": "Cc1c(C(=O)NCCCCCCCCCCCN(C)CCCCCCCCCCCNC(=O)c2nn(-c3ccc(Cl)cc3Cl)c(-c3ccc(Cl)cc3)c2C)nn(-c2ccc(Cl)cc2Cl)c1-c1ccc(Cl)cc1", "target": "Cannabinoid receptor 1 (Rattus norvegicus) (UniProt P20272)", "Emax": "17.3%"}
{"smi": "Cc1c(C(=O)NCCCCCCCCCNCCCCCCCCCN)nn(-c2ccc(Cl)cc2Cl)c1-c1ccc(Cl)cc1", "target": "Cannabinoid receptor 1 (Rattus norvegicus) (UniProt P20272)", "Emax": "-65.2%"}
{"smi": "Cc1c(C(=O)NCCCCCCCN(C)CCCCCCCN)nn(-c2ccc(Cl)cc2Cl)c1-c1ccc(Cl)cc1", "target": "Cannabinoid receptor 1 (Rattus norvegicus) (UniProt P20272)", "Emax": "-62%"}
{"smi": "Cc1c(C(=O)NCCCCCCCCCNCCCCCCCCCNC(=O)c2nn(-c3ccc(Cl)cc3Cl)c(-c3ccc(Cl)cc3)c2C)nn(-c2ccc(Cl)cc2Cl)c1-c1ccc(Cl)cc1", "target": "Cannabinoid receptor 1 (Rattus norvegicus) (UniProt P20272)", "Emax": "10.4%"}
{"smi": "Cc1c(C(=O)NCCCNCCCNC(=O)c2nn(-c3ccc(Cl)cc3Cl)c(-c3ccc(Cl)cc3)c2C)nn(-c2ccc(Cl)cc2Cl)c1-c1ccc(Cl)cc1", "target": "Cannabinoid receptor 1 (Rattus norvegicus) (UniProt P20272)", "Emax": "-37.2%"}
{"smi": "Cc1c(C(=O)NCCNCCNC(=O)c2nn(-c3ccc(Cl)cc3Cl)c(-c3ccc(Cl)cc3)c2C)nn(-c2ccc(Cl)cc2Cl)c1-c1ccc(Cl)cc1", "target": "Cannabinoid receptor 1 (Rattus norvegicus) (UniProt P20272)", "Emax": "-35.9%"}
{"smi": "Cc1c(C(=O)NCCCCCCCCCCCNCCCCCCCCCCCNC(=O)c2nn(-c3ccc(Cl)cc3Cl)c(-c3ccc(Cl)cc3)c2C)nn(-c2ccc(Cl)cc2Cl)c1-c1ccc(Cl)cc1", "target": "Cannabinoid receptor 1 (Rattus norvegicus) (UniProt P20272)", "Emax": "-12.2%"}
{"smi": "Cc1c(C(=O)NCCCCCCCNCCCCCCCN)nn(-c2ccc(Cl)cc2Cl)c1-c1ccc(Cl)cc1", "target": "Cannabinoid receptor 1 (Rattus norvegicus) (UniProt P20272)", "Emax": "-52.8%"}
{"smi": "Cc1c(C(=O)NCCCNCCCN)nn(-c2ccc(Cl)cc2Cl)c1-c1ccc(Cl)cc1", "target": "Cannabinoid receptor 1 (Rattus norvegicus) (UniProt P20272)", "Emax": "-34.8%"}
{"smi": "Cc1c(C(=O)NCCCCCCCCCN(C)CCCCCCCCCN)nn(-c2ccc(Cl)cc2Cl)c1-c1ccc(Cl)cc1", "target": "Cannabinoid receptor 1 (Rattus norvegicus) (UniProt P20272)", "Emax": "-67.9%"}
{"smi": "Cc1c(C(=O)NCCCCCNCCCCCN)nn(-c2ccc(Cl)cc2Cl)c1-c1ccc(Cl)cc1", "target": "Cannabinoid receptor 1 (Rattus norvegicus) (UniProt P20272)", "Emax": "-40.7%"}
{"smi": "Cc1c(C(=O)NCCCCCNCCCCCNC(=O)c2nn(-c3ccc(Cl)cc3Cl)c(-c3ccc(Cl)cc3)c2C)nn(-c2ccc(Cl)cc2Cl)c1-c1ccc(Cl)cc1", "target": "Cannabinoid receptor 1 (Rattus norvegicus) (UniProt P20272)", "Emax": "-29.6%"}
{"smi": "Cc1c(C(=O)NCCNCCN)nn(-c2ccc(Cl)cc2Cl)c1-c1ccc(Cl)cc1", "target": "Cannabinoid receptor 1 (Rattus norvegicus) (UniProt P20272)", "Emax": "-22.9%"}
